These data points were gathered from the supplement of paper PMC10307832.

Tested on: NCI-H2170
Experiment: relative viability (nuclei count vs DMSO), 5 days (fraction); higher = more cells survive
Conditions: first compound 5 µM
The label met is reserved for relative viability strictly under 0.5; not met covers values equal to or above it.

Worked examples, 6 compounds total:
O=C(O)CCCCC(CCSCc1ccccc1)SCc1ccccc1 (centres undefined) [CPI-613] + CC(=O)Nc1cccc(-n2c(=O)n(C3CC3)c(=O)c3c(Nc4ccc(I)cc4F)n(C)c(=O)c(C)c32)c1 [Trametinib] (partner 0.02 µM) | not met
O=C(O)CCCCC(CCSCc1ccccc1)SCc1ccccc1 (centres undefined) [CPI-613] + CCNC(=O)c1noc(-c2cc(C(C)C)c(O)cc2O)c1-c1ccc(CN2CCOCC2)cc1 [Luminespib] (partner 0.01 µM) | not met
O=C(O)CCCCC(CCSCc1ccccc1)SCc1ccccc1 (centres undefined) [CPI-613] + NC(=O)Nc1cc(-c2cccc(F)c2)sc1C(=O)N[C@H]1CCCNC1 [AZD7762] (partner 0.2 µM) | not met
O=C(O)CCCCC(CCSCc1ccccc1)SCc1ccccc1 (centres undefined) [CPI-613] + Cc1nc(Nc2ncc(C(=O)Nc3c(C)cccc3Cl)s2)cc(N2CCN(CCO)CC2)n1 [Dasatinib] (partner 0.075 µM) | not met
O=C(O)CCCCC(CCSCc1ccccc1)SCc1ccccc1 (centres undefined) [CPI-613] + Cc1nc(NC(=O)N2CCC[C@H]2C(N)=O)sc1-c1ccnc(C(C)(C)C(F)(F)F)c1 [Alpelisib] (partner 2 µM) | not met
O=C(O)CCCCC(CCSCc1ccccc1)SCc1ccccc1 (centres undefined) [CPI-613] + C[C@@H](Oc1cc(-c2cnn(C3CCNCC3)c2)cnc1N)c1c(Cl)ccc(F)c1Cl [Crizotinib] (partner 1 µM) | not met

// query Would you kindly verify if relative viability of O=C(O)CCCCC(CCSCc1ccccc1)SCc1ccccc1 (centres undefined) [CPI-613] + CS(=O)(=O)N1CCN(Cc2cc3nc(-c4cccc5[nH]ncc45)nc(N4CCOCC4)c3s2)CC1 [Pictilisib] (partner 1 µM) is strictly less than 0.5?
// result met

// query O=C(O)CCCCC(CCSCc1ccccc1)SCc1ccccc1 (centres undefined) [CPI-613] + Nc1ncn([C@H]2C[C@H](O)[C@@H](CO)O2)c(=O)n1 [Decitabine] (partner 2 µM) , same question.
// result met

// query O=C(O)CCCCC(CCSCc1ccccc1)SCc1ccccc1 (centres undefined) [CPI-613] + CC(=O)c1c(C)c2cnc(Nc3ccc(N4CCNCC4)cn3)nc2n(C2CCCC2)c1=O [Palbociclib] (partner 0.5 µM) , same question.
// result met

###

Tested on: HCC-44
Experiment: relative viability (nuclei count vs DMSO), 5 days (fraction); higher = more cells survive
Conditions: first compound 0.4 µM
Kindly supply the reported relative viability values for the records listed here.
One number for each entry.

Cc1sc2c(c1C)C(c1ccc(Cl)cc1)=N[C@@H](CC(=O)OC(C)(C)C)c1nnc(C)n1-2 [JQ1] + CC(=O)c1c(C)c2cnc(Nc3ccc(N4CCNCC4)cn3)nc2n(C2CCCC2)c1=O [Palbociclib] (partner 0.5 µM) | 1.11

Hi there! I need relative viability for each item below, if you can.
1. Cc1sc2c(c1C)C(c1ccc(Cl)cc1)=N[C@@H](CC(=O)OC(C)(C)C)c1nnc(C)n1-2 [JQ1] + N=C(N)NC(=N)NCCc1ccccc1 [Phenformin] (partner 250 µM)
2. Cc1sc2c(c1C)C(c1ccc(Cl)cc1)=N[C@@H](CC(=O)OC(C)(C)C)c1nnc(C)n1-2 [JQ1] + C[C@]1(O)C[C@@H](c2nc(-c3ccc4ccc(-c5ccccc5)nc4c3)c3c(N)nccn32)C1 [Linsitinib] (partner 1 µM)
3. Cc1sc2c(c1C)C(c1ccc(Cl)cc1)=N[C@@H](CC(=O)OC(C)(C)C)c1nnc(C)n1-2 [JQ1] + CC(C)C[C@H](NC(=O)[C@H](Cc1ccccc1)NC(=O)c1cnccn1)B(O)O [Bortezomib] (partner 0.002 µM)

// result
1. 0.161
2. 0.32
3. 0.744

###

System: 201T
Assay: relative viability (nuclei count vs DMSO), 5 days (fraction); higher = more cells survive
Conditions: first compound 0.1265 µM
Parameter: relative viability
Give bare numbers.

Cc1sc2c(c1C)C(c1ccc(Cl)cc1)=N[C@@H](CC(=O)OC(C)(C)C)c1nnc(C)n1-2 [JQ1] + CS(=O)(=O)CCNCc1ccc(-c2ccc3ncnc(Nc4ccc(OCc5cccc(F)c5)c(Cl)c4)c3c2)o1 [Lapatinib] (partner 2 µM) | 0.51
Cc1sc2c(c1C)C(c1ccc(Cl)cc1)=N[C@@H](CC(=O)OC(C)(C)C)c1nnc(C)n1-2 [JQ1] + Cc1cc(Nc2cc(N3CCN(C)CC3)nc(Sc3ccc(NC(=O)C4CC4)cc3)n2)n[nH]1 [Tozasertib] (partner 0.1 µM) | 0.651

Kindly review the next compound as well.
// query Quick one: relative viability of Cc1sc2c(c1C)C(c1ccc(Cl)cc1)=N[C@@H](CC(=O)OC(C)(C)C)c1nnc(C)n1-2 [JQ1] + CC1(C)CCC(c2ccc(Cl)cc2)=C(CN2CCN(c3ccc(C(=O)NS(=O)(=O)c4ccc(N[C@H](CCN5CCOCC5)CSc5ccccc5)c(S(=O)(=O)C(F)(F)F)c4)cc3)CC2)C1 [Navitoclax] (partner 0.5 µM) ?
// result 0.977

###

System: NCI-H1755
Assay: relative viability (nuclei count vs DMSO), 5 days (fraction); higher = more cells survive
Conditions: first compound 0.0002 µM
Kindly supply the reported relative viability values for the records listed here.
One number for each entry.

CC(=O)O[C@@]12CO[C@@H]1C[C@H](O)[C@@]1(C)C(=O)[C@H](O)C3=C(C)[C@@H](OC(=O)[C@H](O)[C@@H](NC(=O)OC(C)(C)C)c4ccccc4)C[C@@](O)([C@@H](OC(=O)c4ccccc4)[C@H]21)C3(C)C [Docetaxel] + CCNC(=O)c1noc(-c2cc(C(C)C)c(O)cc2O)c1-c1ccc(CN2CCOCC2)cc1 [Luminespib] (partner 0.01 µM) | 0.427
CC(=O)O[C@@]12CO[C@@H]1C[C@H](O)[C@@]1(C)C(=O)[C@H](O)C3=C(C)[C@@H](OC(=O)[C@H](O)[C@@H](NC(=O)OC(C)(C)C)c4ccccc4)C[C@@](O)([C@@H](OC(=O)c4ccccc4)[C@H]21)C3(C)C [Docetaxel] + COc1cc2c(Oc3ccc(NC(=O)C4(C(=O)Nc5ccc(F)cc5)CC4)cc3F)ccnc2cc1OCCCN1CCOCC1 [Foretinib] (partner 0.25 µM) | 0.901
CC(=O)O[C@@]12CO[C@@H]1C[C@H](O)[C@@]1(C)C(=O)[C@H](O)C3=C(C)[C@@H](OC(=O)[C@H](O)[C@@H](NC(=O)OC(C)(C)C)c4ccccc4)C[C@@](O)([C@@H](OC(=O)c4ccccc4)[C@H]21)C3(C)C [Docetaxel] + Cc1cc(Nc2cc(N3CCN(C)CC3)nc(Sc3ccc(NC(=O)C4CC4)cc3)n2)n[nH]1 [Tozasertib] (partner 0.1 µM) | 0.62

Hi there! I need relative viability for each item below, if you can.
1. CC(=O)O[C@@]12CO[C@@H]1C[C@H](O)[C@@]1(C)C(=O)[C@H](O)C3=C(C)[C@@H](OC(=O)[C@H](O)[C@@H](NC(=O)OC(C)(C)C)c4ccccc4)C[C@@](O)([C@@H](OC(=O)c4ccccc4)[C@H]21)C3(C)C [Docetaxel] + CC1(C)CCC(c2ccc(Cl)cc2)=C(CN2CCN(c3ccc(C(=O)NS(=O)(=O)c4ccc(N[C@H](CCN5CCOCC5)CSc5ccccc5)c(S(=O)(=O)C(F)(F)F)c4)cc3)CC2)C1 [Navitoclax] (partner 0.5 µM)
2. CC(=O)O[C@@]12CO[C@@H]1C[C@H](O)[C@@]1(C)C(=O)[C@H](O)C3=C(C)[C@@H](OC(=O)[C@H](O)[C@@H](NC(=O)OC(C)(C)C)c4ccccc4)C[C@@](O)([C@@H](OC(=O)c4ccccc4)[C@H]21)C3(C)C [Docetaxel] + Nc1ncn([C@H]2C[C@H](O)[C@@H](CO)O2)c(=O)n1 [Decitabine] (partner 2 µM)
3. CC(=O)O[C@@]12CO[C@@H]1C[C@H](O)[C@@]1(C)C(=O)[C@H](O)C3=C(C)[C@@H](OC(=O)[C@H](O)[C@@H](NC(=O)OC(C)(C)C)c4ccccc4)C[C@@](O)([C@@H](OC(=O)c4ccccc4)[C@H]21)C3(C)C [Docetaxel] + O=C(c1cc(Cc2n[nH]c(=O)c3ccccc23)ccc1F)N1CCN(C(=O)C2CC2)CC1 [Olaparib] (partner 8 µM)
4. CC(=O)O[C@@]12CO[C@@H]1C[C@H](O)[C@@]1(C)C(=O)[C@H](O)C3=C(C)[C@@H](OC(=O)[C@H](O)[C@@H](NC(=O)OC(C)(C)C)c4ccccc4)C[C@@](O)([C@@H](OC(=O)c4ccccc4)[C@H]21)C3(C)C [Docetaxel] + CC(C)C[C@H](NC(=O)[C@H](Cc1ccccc1)NC(=O)c1cnccn1)B(O)O [Bortezomib] (partner 0.002 µM)

// result
0.982
0.772
0.87
0.984
